- protocol: A CellTox Green Cytotoxicity Assay to monitor cytotoxicity in HepG2 cells - 24 hour (AID 1224878); also: nearly all actives have a fitted effect of over 45% in size
- particulars: CellTox Green fluorescence; series mostly up to 76.8 µM
Records with an inconclusive call do not appear. Activity calls are given as the source filed them. Calls follow the shape of the dose curve; as a rule, active = well fitted activation curve with a large enough effect in the repeat runs; inconclusive = weak or mixed curves; inactive = flat fitted curve, though single readings scatter.
// one of yes (active), no (inactive), no free text

# count of solved cases: 4
compound	label.value
CC(=O)[C@H]1CC[C@H]2[C@@H]3CC[C@H]4C[C@](C)(O)CC[C@]4(C)[C@H]3CC[C@]12C	no
CCCCCC[N+](=O)[O-]	no
CC/C(=N\OC/C=C/Cl)C1=C(O)CC(C2CCOCC2)CC1=O (stereo unspecified)	no
CC(=O)NC1CCSC1=O (stereo unspecified)	no

Query string: Returns: the outcome recorded for O=C(Nc1ccccc1)Nc1ccnc(Cl)c1 in this assay.
Result string: no

Query string: How about this compound: O=Cc1ccc(Cl)cc1Cl
Result string: no

Query string: What do you get for COc1c(C(C)(C)C)cc([N+](=O)[O-])c(C)c1[N+](=O)[O-] ?
Result string: no

Query string: Would you mind doing CCCC(=O)Cl as well?
Result string: no

Query string: Also check Nc1nc(=S)[nH][nH]1
Result string: no

Query string: Entry CN1[C@@H]2CC[C@H]1CC(OC(=O)c1cc(Cl)cc(Cl)c1)C2 (stereo partly specified) please
Result string: yes

Query string: # iterate: c1cc2ccc3cccc4ccc(c1)c2c34
Result string: no

Query string: Item: C#CCOC(C(=O)OCCN(C)C)(c1ccccc1)c1ccccc1
Result string: no

Query string: Proceed to Cl/C=C\Cl
Result string: no

Query string: ClCCCCBr , same question.
Result string: no

Query string: Moving on to the next compound: CCCCCCCCCCOC(=O)c1ccccc1C(=O)OCCCCCCCCCC
Result string: no

Query string: And then CCC(Br)(CC)C(=O)NC(N)=O , what is it?
Result string: no

Query string: // next record C[C@@H]1CC[C@H]2[C@@H](C)C(=O)O[C@@H]3O[C@@]4(C)CC[C@@H]1[C@]32OO4
Result string: no

Query string: Here is the next compound: CCc1ccc(C(=O)NN(C(=O)c2cc(C)cc(C)c2)C(C)(C)C)cc1
Result string: no

Query string: Could you do the same for C=CC(=O)OCC(C)O (stereo unspecified) , please?
Result string: no

Query string: Query CCCCC(CC)COP(=O)(Oc1ccccc1)Oc1ccccc1 (stereo unspecified) next
Result string: no

Query string: Param item: O=[N+]([O-])c1ccc(F)c([N+](=O)[O-])c1
Result string: no
